# assay text: qHTS assay to identify small molecule antagonists of the farnesoid-X-receptor (FXR) signaling pathway - cell viability counter screen (AID 743221); also: nearly all actives have a fitted effect of over 50% in size
# assay context: FXR-bla HEK293T viability, CellTiter-Glo luminescence, 16 h; series mostly up to 62.6 µM
Records with an inconclusive call do not appear. Calls of active or inactive are those of the source. Calls follow the shape of the dose curve; as a rule, active = well fitted cell-killing curve with a large enough effect in the repeat runs (not every such curve was filed as active); inconclusive = weak or mixed curves, or effect the other way; inactive = no such curve, though single readings can be large or run the other way.
readout kind: activity change, negative = cytotoxicity

Example entries and their recorded answers appear below.
Q: Look up activity change, negative = cytotoxicity for this compound: C=CCOC(=O)c1ccc(C(=O)OCC=C)c(C(=O)OCC=C)c1
A: inactive

Q: Look up activity change, negative = cytotoxicity for this compound: CCOC(=O)C(=O)c1csc(NC=O)n1
A: inactive

Q: Look up activity change, negative = cytotoxicity for this compound: CC(C)CCCC(C)CC=O (configuration not stated)
A: inactive

Q: Look up activity change, negative = cytotoxicity for this compound: O=C(Oc1ccccc1C(=O)O)c1ccccc1O
A: inactive

Q: Look up activity change, negative = cytotoxicity for this compound: CCOC(=O)OCC/C(SC(=O)OCC)=C(\C)N(C=O)Cc1cnc(C)nc1N
A: inactive

Q: Look up activity change, negative = cytotoxicity for this compound: CC(C)COC(=O)CCCCC(=O)OCC(C)C
A: inactive

Others:
Q: Look up activity change, negative = cytotoxicity for this compound: FC(F)(F)/C(=N\OCC1OCCO1)c1ccc(Cl)cc1
A: inactive

Q: Look up activity change, negative = cytotoxicity for this compound: CCCC(C)CC (configuration not stated)
A: inactive

Q: Look up activity change, negative = cytotoxicity for this compound: CC(C)(CO)[C@@H](O)C(=O)NCCCO
A: inactive

Q: Look up activity change, negative = cytotoxicity for this compound: CC(C)c1ccccc1O
A: inactive

The values you see were collected from PubChem BioAssay (Tox21).
